# assayed target: human S1P3 receptor (Homo sapiens)
# Construct: expressed in transfected cells
# Sequence (Q99500 whole entry): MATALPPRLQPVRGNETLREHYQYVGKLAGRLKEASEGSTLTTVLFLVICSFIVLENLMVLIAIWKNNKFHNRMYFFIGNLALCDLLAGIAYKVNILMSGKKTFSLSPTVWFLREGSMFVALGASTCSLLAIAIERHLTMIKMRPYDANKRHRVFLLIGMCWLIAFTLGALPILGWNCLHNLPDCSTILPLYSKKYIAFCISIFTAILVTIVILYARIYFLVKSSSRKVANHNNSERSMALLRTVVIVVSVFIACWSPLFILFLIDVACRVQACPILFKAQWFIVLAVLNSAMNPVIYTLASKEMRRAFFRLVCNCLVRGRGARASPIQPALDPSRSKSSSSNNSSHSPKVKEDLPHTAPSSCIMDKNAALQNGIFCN
# test method notes: FLIPR assay in T24 cells stably expressing the human S1P3 receptor
# Assay type: cell-based
# recorded conditions: FLIPR; table of additional selective S1P3 inhibitors; read-out: S1P3 (IC50)
Hi there, I'd appreciate the recorded pIC50 for every entry that follows.
Answers are plain numbers, as −log10 of the molar value.

Sample records with pIC50:
1. O=C(NCc1ccc(F)c(F)c1)c1c(C2CCCC2)n(Cc2ccccc2)c2ccc(O)cc12	7.51
2. CCc1ccc(-c2ccc(CNCCCP(=O)(O)O)nc2-c2ccccc2)cc1 [drawing 165]	6.50

# ---- query molecule ----
Find the recorded pIC50 belonging to O=C(NCc1ccc(F)c(F)c1)c1c(C2CCCC2)n(Cc2ccccn2)c2ccc(O)cc12 and report it.
7.77
